This collection of values is drawn from ChEMBL document CHEMBL1201862.

Test system: HOP-18
Method Summary: NCI tumour cell line growth inhibition, 48 h
The source made the active and inactive calls. No stated cut-off is given here; in the data, active = GI50 up to about 1.1 µM and inactive = higher.
Reply using exactly one outcome from active, inactive

Could you kindly confirm the outcome this assay logged for O=C1CC23CCCCCCCCCCC2(C1)CC(=O)C3 (stereo unspecified) ?
inactive

Please indicate how the test categorized Cc1ccc(SC2C(C)(C)N(C(C)C)P2(=O)N(C(C)C)C(C)C)cc1 (stereo unspecified) .
inactive

Hi team, can someone confirm the assay call for N#Cc1ccc(/C=N\N2C(=O)c3ccccc3C2=O)cc1 ?
inactive

Can you look up the reported call for O=C(Cc1ccccc1F)NC1=C(Cl)C(=O)c2ccccc2C1=O for me?
active

Which outcome did this test record for the compound CN(C)CC1CCCC/C1=N/OC(=O)c1ccc(Cl)c(Cl)c1 (stereo unspecified) ?
inactive

How was S=c1sc2c(Cl)ncnc2n1-c1ccccc1 classified in this test?
inactive

###

Test system: KM12
Method Summary: NCI tumour cell line growth inhibition, 48 h
Calls of active or inactive are those of the source. No stated cut-off is given here; in the data, active = GI50 up to about 1.1 µM and inactive = higher.
The reply should name one outcome from yes = active, no = inactive

Assay result, entry O=C1O/C(=C\c2ccccc2)N(c2ccccc2)C1=O — outcome?
no

Answer briefly: the call reported for C=C1c2nc3ccccc3n2C=C(c2ccccc2)N1c1ccc(OC)cc1 in this assay.
no

Kindly provide the recorded test outcome for the following molecule: CC(NC(=O)C(C)C(=O)Nc1ccc(C(F)(F)F)cc1)C(N)=O (configuration not stated)
no

Call for entry C[C@]12CC[C@H](O)CC1=CC[C@@H]1C2CC[C@]2(C)Nc3c(cnn3-c3ccc(F)cc3)CC12 (some centres not stated) :
no

What was the test verdict on COc1ccc(C=C2C(=O)OC(C)(C)OC2=O)cc1OC ?
no

Field: outcome | Entry: COc1ccc(C(=O)O/N=C2/CCCCC2CN(C)C)cc1 (configuration not stated)
no

Hi, do you know how Nc1ccccc1C(=O)/C=C/c1ccccc1O came out in this test?
no

Which outcome did this test record for the molecule NC(=O)/C(=N\NC(=O)C[n+]1ccccc1)C1NC(=O)NC1=O (configuration not stated) ?
no

# lookup: test call for COC1CC2C=CC3C4OC2(/C(C)=C/C(C)C(C(C)O)OC1=O)C3C(O)C(C)C4OC(=O)c1ccc[nH]1 (configuration not stated)
no

What outcome does the record of this test show for COc1ccc(C2Oc3cc(OC)c(O)c(C)c3[C@H]2C)cc1 (some centres not stated) ?
no

GET /call?item= [N-]=[N+]=Nc1c(Cc2ccccc2)c(Cl)nc2ccccc12 returns the recorded outcome of this test.
no

What call does the record list for NC(S)=Nc1cc(Cl)ccc1Cl ?
no

Which outcome was entered for the molecule CCN1C(=O)/C(=C\c2coc3ccccc3c2=O)SC1=S in this test?
no

How did this test come out for CN(C)C(=O)CO/N=C1/C(=C2/C(=O)Nc3ccccc32)Nc2ccccc21 ?
yes

Given CCOC(=O)[C@H]1Nc2c(cccc2[N+](=O)[O-])[C@H]2OCC[C@@H]12 , state the outcome it received in this test.
no

Write down the call the test reported for this molecule. Item: CN(C)S(=O)(=O)Nc1ccccn1
no

What classification did CC(C)(C)[Si](OC1CC(n2cnc3c(N)ncnc32)OC1CO)(c1ccccc1)c1ccccc1 (configuration not stated) end up with in this test?
no

Entry Nc1ncnc2c1ncn2C1CCC(CP(=O)(O)O)C1 (configuration not stated) : call = ?
no

Identify the outcome logged in this assay for the molecule shown: COc1ccccc1/C=N/C12CC3CC(CC(C3)C1)C2
no

Test call for this molecule, please: CCCCCCc1ccc(C(=O)NO)cc1
no

Given O=C1CC(=O)n2cnc3cccc(c32)N1 , state the outcome it received in this test.
no

Can you look up the reported call for Cc1ccc(NC(=O)CC(=O)N2N=C(N(C)c3ccccc3)CC2c2ccccc2)cc1 (configuration not stated) for me?
no

Called result for COc1ccc(OC)c2c1C=CC(Br)=CC2
yes

// param item: COc1ccc(N2C(=O)c3cc([N+](=O)[O-])cnc3S2(=O)=O)cc1 ; yields the recorded call
no

Entry Oc1ccc(C(c2ccc(O)cc2)c2ccc(O)cc2)cc1 : call = ?
no

Could you kindly confirm the outcome this assay logged for COC(C)C(O)(C(=O)OCC1=CCN2CCC(O)C12)C(C)(C)O (configuration not stated) ?
no

Which outcome was entered for the molecule O1C2C1C1OC1C1OC1C1OC21 (configuration not stated) in this test?
no

Per the assay record, what outcome was assigned to COc1cc(OC)c2nc3occc3c(OC)c2c1 ?
no

What was the test verdict on O=[N+]([O-])c1ccc(N/N=C(\c2ccccc2)c2ccccn2)nc1 ?
no

Name the outcome recorded for CN(C)CC1CN/C(=N\C(=O)Nc2ccccc2)O1 (configuration not stated) in the assay.
no

Identify the outcome logged in this assay for the molecule shown: COC(=O)c1ccccc1C#CCCCOS(C)(=O)=O
no

Please share the test call associated with CCN(CC)CCNc1c(OC)cc(C)c2sc3ccccc3c(=O)c12 .
no

Hi, do you know how COc1ncc(C=C(C#N)C#N)c(OC)n1 came out in this test?
no

Assay result, entry CCCCCCCC/C=C1\CCC(CN(C)C)C1=O (configuration not stated) — outcome?
no

For CC(=O)NCCc1c[nH]c2ccc(Cl)cc12 , what call appears in the results of this test?
no

# outcome recorded in this test, key = CNC(=O)CN(CC(N)=O)C(=O)NC
no

Answer briefly: the call reported for CCOc1ccc([Se][Se]c2ccc(OCC)cc2)cc1 in this assay.
no

Please indicate how the test categorized CC(=O)O[C@H]1CCC2[C@@H]3CC[C@]4(C)CC(=O)C=C[C@]4(C)C3CC[C@@]21C (some centres not stated) .
no

Which outcome did this test record for the molecule c1nnc(NCNc2nncs2)s1 ?
no

Each molecule tested received a call. Report the one for CCOc1cccc2cccnc12 .
no

What was the test verdict on COc1cc2c(/C=C3/C(=O)Nc4ccc(Cl)cc43)c(Cl)[nH]c2cc1C ?
yes

Entry CCC(C)C(NC(=O)c1c2ccccc2nc2ccccc12)C(=O)O (configuration not stated) : call = ?
no

Could you kindly confirm the outcome this assay logged for CC(=O)NNc1nc(C)c(C(=O)/C=C/c2ccc(NC(C)=O)cc2)s1 ?
no

Per the records of this test, what outcome belongs to Cc1ccc(S(=O)(=O)n2c(-c3ccccc3)c(-c3ccccc3)c3ccccc32)cc1 ?
no

What call does the record list for CN1C/C(=C\c2ccco2)c2nc(N)nc(-c3ccco3)c2C1 ?
no

Kindly provide the recorded test outcome for the following molecule: O=C1CC(Nc2ccccc2)c2c(Cl)sc(Cl)c21 (configuration not stated)
yes

Just curious, what result did C/C(=N/NC(=S)Nc1ccccc1Cl)c1cccc(/C(C)=N\NC(=S)Nc2ccccc2Cl)n1 get here?
no
